Measured normalized intracellular growth values are reported for all entries that follow.
tested on: Salmonella enterica serovar Typhimurium SL1344; assay: normalized intracellular growth (luminescence, IQM-normalized) in RAW264.7 macrophages (fraction of plate interquartile mean); higher = more bacterial growth (less inhibition); details: 10 µM, time point: Tfinal (~6 h)
In all, about 1,600 compounds were measured (“normalized intracellular growth (luminescence, IQM-normalized) in RAW264.7 macrophages”: median about 1, lowest 2% from about 0.43 on). The entries come from a sample that favours the lowest values as a whole.
Write the number on its own, no unit after it.

The following compounds have reported results that may help.
O=C1OC2(c3ccc(O)cc3Oc3cc(O)ccc32)c2ccccc21	0.891
NC(=O)NS(=O)(=O)c1ccc(N)cc1	0.881
C[C@@H]1CN(c2c(F)c(N)c3c(=O)c(C(=O)O)cn(C4CC4)c3c2F)C[C@H](C)N1	0.0132
Cc1ccc(S(=O)(=O)NCl)cc1	0.902
N#Cc1ccc2c(c1)N(CCCN1CCC(O)CC1)c1ccccc1S2	0.869

normalized intracellular growth on Salmonella enterica serovar Typhimurium SL1344 for C[C@H]1O[C@@H](O[C@H]2[C@@H](O)C[C@H](O[C@H]3[C@@H](O)C[C@H](O[C@H]4CC[C@@]5(C)[C@H](CC[C@@H]6[C@@H]5CC[C@]5(C)[C@@H](C7=CC(=O)OC7)CC[C@]65O)C4)O[C@@H]3C)O[C@@H]2C)C[C@H](O)[C@@H]1O is 1.08

normalized intracellular growth on Salmonella enterica serovar Typhimurium SL1344 for CCCCCCCCCCCCCCCC(=O)OC[C@@H](NC(=O)C(Cl)Cl)[C@H](O)c1ccc([N+](=O)[O-])cc1 is 0.822

normalized intracellular growth on Salmonella enterica serovar Typhimurium SL1344 for CCCCCNC(=N)N/N=C/c1c[nH]c2ccc(OC)cc12 is 1.08

normalized intracellular growth on Salmonella enterica serovar Typhimurium SL1344 for C[C@@H]1CN(c2c(F)c(F)c3c(=O)c(C(=O)O)cn(C4CC4)c3c2F)C[C@H](C)N1 is 0.0257

normalized intracellular growth on Salmonella enterica serovar Typhimurium SL1344 for NCC(O)CC(=O)O (stereo unspecified) is 1.03

normalized intracellular growth on Salmonella enterica serovar Typhimurium SL1344 for OC[C@H]1O[C@@H](O[C@H]2[C@H](O)[C@@H](O)C(O)O[C@@H]2CO)[C@H](O)[C@@H](O)[C@H]1O (stereo partly specified) is 1.04
